# SYSTEM: T1, human BTN2A2 CFP(Nter)-fusion protein expressed on 293F BTN3/BTN2 KO cells (human, UniProt Q8WVV5 33-523)
# T1 construct: also called pcDNA3-Zeo-BTN2A2-CFP; not shown: CFP fused at the N-terminus (CFP(Nter)-fusion)
# T1 sequence: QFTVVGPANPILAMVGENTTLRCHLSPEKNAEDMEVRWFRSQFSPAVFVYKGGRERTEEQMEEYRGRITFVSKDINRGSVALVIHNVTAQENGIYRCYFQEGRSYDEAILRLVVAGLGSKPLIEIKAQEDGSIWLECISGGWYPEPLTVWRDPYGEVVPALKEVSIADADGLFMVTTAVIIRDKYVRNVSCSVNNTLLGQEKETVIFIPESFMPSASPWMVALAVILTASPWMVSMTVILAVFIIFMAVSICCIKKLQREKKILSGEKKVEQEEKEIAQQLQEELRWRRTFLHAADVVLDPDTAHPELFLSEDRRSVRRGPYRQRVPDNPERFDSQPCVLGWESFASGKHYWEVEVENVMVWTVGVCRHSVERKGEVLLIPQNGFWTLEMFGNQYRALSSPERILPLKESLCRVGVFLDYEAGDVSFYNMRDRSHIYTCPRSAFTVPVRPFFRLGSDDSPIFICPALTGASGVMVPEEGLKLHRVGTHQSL
# TEST DESCRIPTION: flow cytometry on BTN2A2-transfected 293F BTN3/BTN2 KO cells (summary table, repeats the 7th table)
ASSAY READOUT: EC50 (µg/mL)
Numbers only, in µg/mL.

>  <BINDER>
mAb1 (mouse anti-human BTN2 mAb 4.15) (antibody, V domains shown, Mouse IgG1 purified from hybridoma supernatant; also called CNCM I-5231) VH: QVQLQQSGAELVKPGASVKLSCKASGYIFTSYDINWVRQRPEQGLEWIGWIFPGDDSIIQNEKFKGKATLTTDKSSSTVYMQLSRLTSEDSAVYFCARLGPLRGFTYWGQGTLVTVSA VL: DIVLTQSPASLAVSLGQRATISCRASESVDRYGSSFMHWYQQKPGQPPKLLIYRASNLESGIPARFSGSGSRTDFTLTINPVEADDVATYYCQQSNEDPWTFGGGTKLEIK

>  <EC50 / µg/mL>
0.01

$$$$

Please give EC50 for each item listed below.
1. mAb3 (mouse anti-human BTN2 mAb 7.28) (antibody, V domains shown, Mouse IgG1 purified from hybridoma supernatant; also called CNCM I-5233) VH: QVHLQQSGAELMKPGASVKISCKATGYTFSSYWIEWVKQRPGHGREWIGEILPGSGSTKYNEKFRGKATFAADTSSNTAYVQLSSLTSEDSAVYYCARLKGYYGGGAMDYWGQGTSVTVSS VL: DVQITQSPSYLAASPGETITINCRASKSISKYLAWYQEKPGKTNELLIYSGSTLQSGIPSRFSGSGSGTDFTLTISSLEPEDFAMYYCQQHNEYPWTFGGGTKLEIK
2. mAb6 (mouse anti-human BTN2 mAb 8.16) (antibody, V domains shown, Mouse IgG1 purified from hybridoma supernatant; also called CNCM I-5236) VH: EVKLLESGGGLVQPGGSLKLSCAASGFDFSGYWMTWVRQAPGKGLEWIGEINPDSSTINYTPSLRDKFIISRDNAKNTLYLQMSKVRSEDTALYFCARGSYYPSYWGQGTLVTVSA VL: DIVLTQSPASLAVSLGQRATISCRASKSVSSSGYSYMNWYQQKPGQPPKLLIYLASNLESGVPARFSGSGSGTDFTLNIHPVEDEDAATYYCQHSRELPHTFGGGTKLEIK

1. 11.8
2. 2.4
